- PROCEDURE_DETAILS: Cytotoxicity against human MRC5 cells after 72 hrs by XTT assay
- Type: cell-based
Property: GI50 at 72 h; scope: individual molecules

{"MOLECULE": "CN(C)CCCOc1ccc(-c2nc3ccccc3c3c2-c2ccc(O)cc2C3=O)cc1", "RESULT_COMPARATOR": "=", "GI50 at 72 h, µM": 4.61}
{"MOLECULE": "O=C1c2cc(OCCN3CCCC3)ccc2-c2c(-c3ccc(OCCN4CCCC4)cc3)nc3ccc(OCCN4CCCC4)cc3c21", "RESULT_COMPARATOR": "=", "GI50 at 72 h, µM": 0.71}
{"MOLECULE": "COc1ccc(-c2nc3ccccc3c3c2-c2ccc(OC)cc2C3=O)cc1", "RESULT_COMPARATOR": ">", "GI50 at 72 h, µM": 10}
{"MOLECULE": "O=C1c2cc(OCCN3CCCCC3)ccc2-c2c(-c3ccc(OCCN4CCCCC4)cc3)nc3ccccc3c21", "RESULT_COMPARATOR": "=", "GI50 at 72 h, µM": 4.34}
{"MOLECULE": "O=C1c2cc(OCCN3CCCC3)ccc2-c2c(-c3ccc(OCCN4CCCC4)cc3)nc3ccc(F)cc3c21", "RESULT_COMPARATOR": "=", "GI50 at 72 h, µM": 5.15}
{"MOLECULE": "O=C1c2cc(O)ccc2-c2c(-c3ccc(OCCN4CCCC4)cc3)nc3ccc(F)cc3c21", "RESULT_COMPARATOR": "=", "GI50 at 72 h, µM": 6.02}
{"MOLECULE": "CN(C)CCCOc1ccc(-c2nc3ccc(OCCCN(C)C)cc3c3c2-c2ccc(OCCCN(C)C)cc2C3=O)cc1", "RESULT_COMPARATOR": "=", "GI50 at 72 h, µM": 6.2}
{"MOLECULE": "COc1ccc(-c2nc3ccc(OC)cc3c3c2-c2ccc(OC)cc2C3=O)cc1", "RESULT_COMPARATOR": "=", "GI50 at 72 h, µM": 10.2}
{"MOLECULE": "O=C1c2cc(O)ccc2-c2c(-c3ccc(O)cc3)nc3ccc(F)cc3c21", "RESULT_COMPARATOR": ">", "GI50 at 72 h, µM": 10}
{"MOLECULE": "O=C1c2cc(O)ccc2-c2c(-c3ccc(OCCN4CCCC4)cc3)nc3ccccc3c21", "RESULT_COMPARATOR": "=", "GI50 at 72 h, µM": 3.16}
{"MOLECULE": "O=C1c2cc(OCCN3CCCCC3)ccc2-c2c(-c3ccc(OCCN4CCCCC4)cc3)nc3ccc(OCCN4CCCCC4)cc3c21", "RESULT_COMPARATOR": "=", "GI50 at 72 h, µM": 4.64}
{"MOLECULE": "O=C1c2cc(OCCN3CCCC3)ccc2-c2c(-c3ccc(OCCN4CCCC4)cc3)nc3ccccc3c21", "RESULT_COMPARATOR": "=", "GI50 at 72 h, µM": 5.31}
{"MOLECULE": "CN(C)CCCOc1ccc(-c2nc3ccc(F)cc3c3c2-c2ccc(O)cc2C3=O)cc1", "RESULT_COMPARATOR": "=", "GI50 at 72 h, µM": 4.75}
{"MOLECULE": "O=C1c2cc(O)ccc2-c2c(-c3ccc(O)cc3)nc3ccc(O)cc3c21", "RESULT_COMPARATOR": "=", "GI50 at 72 h, µM": 10.3}
{"MOLECULE": "O=C1c2cc(O)ccc2-c2c(-c3ccc(OCCN4CCCCC4)cc3)nc3ccccc3c21", "RESULT_COMPARATOR": "=", "GI50 at 72 h, µM": 3.1}
{"MOLECULE": "O=C1c2cc(OCCN3CCCCC3)ccc2-c2c(-c3ccc(OCCN4CCCCC4)cc3)nc3ccc(F)cc3c21", "RESULT_COMPARATOR": "=", "GI50 at 72 h, µM": 4.52}
{"MOLECULE": "CN(C)CCCOc1ccc(-c2nc3ccc(F)cc3c3c2-c2ccc(OCCCN(C)C)cc2C3=O)cc1", "RESULT_COMPARATOR": "=", "GI50 at 72 h, µM": 1.86}
{"MOLECULE": "CN(C)CCCOc1ccc(-c2nc3ccccc3c3c2-c2ccc(OCCCN(C)C)cc2C3=O)cc1", "RESULT_COMPARATOR": "=", "GI50 at 72 h, µM": 3.68}
{"MOLECULE": "O=C1c2cc(O)ccc2-c2c(-c3ccc(OCCN4CCCCC4)cc3)nc3ccc(F)cc3c21", "RESULT_COMPARATOR": "=", "GI50 at 72 h, µM": 5.91}
{"MOLECULE": "CC[C@@]1(O)C(=O)OCc2c1cc1n(c2=O)Cc2cc3c(CN(C)C)c(O)ccc3nc2-1 [TOPOTECAN]", "RESULT_COMPARATOR": "=", "GI50 at 72 h, µM": 4.25}
{"MOLECULE": "O=C1c2cc(O)ccc2-c2c(-c3ccc(O)cc3)nc3ccccc3c21", "RESULT_COMPARATOR": ">", "GI50 at 72 h, µM": 10}
{"MOLECULE": "COc1ccc(-c2nc3ccc(F)cc3c3c2-c2ccc(OC)cc2C3=O)cc1", "RESULT_COMPARATOR": ">", "GI50 at 72 h, µM": 10}
{"MOLECULE": "CCc1c2c(nc3ccc(OC(=O)N4CCC(N5CCCCC5)CC4)cc13)-c1cc3c(c(=O)n1C2)COC(=O)[C@]3(O)CC [IRINOTECAN]", "RESULT_COMPARATOR": "=", "GI50 at 72 h, µM": 77.5}
